Experiment: Probe fluorescence ratio response to linolenic acid relative to ADIFAB2
Assay type: binding
Conditions: response relative to ADIFAB2
Hi there, I'd appreciate the recorded DR/DR LNA for every entry that follows.
One number for each entry.

Molecule	Numeric result
36V, 72A (protein, listed as Rattus norvegicus, PEPTIDE (1)...(131) wild-type rat intestinal fatty acid binding protein) AFDGTWKVDRNENYEKFMEKMGINVVKRKLGAHDNVKLTITQEGNKFTVKESSNFRNIDVVFELGVDFAYSAADGTELTGTWTMEGNKLVGKFKRVDNGKELIAVREISGNELIQTYTYEGVEAKRIFKKE	1.082

Would you kindly share the measured DR/DR LNA for 68E, 72A (protein, listed as Rattus norvegicus, PEPTIDE (1)...(131) wild-type rat intestinal fatty acid binding protein) AFDGTWKVDRNENYEKFMEKMGINVVKRKLGAHDNLKLTITQEGNKFTVKESSNFRNIDVVFELGVDEAYSAADGTELTGTWTMEGNKLVGKFKRVDNGKELIAVREISGNELIQTYTYEGVEAKRIFKKE ? 0.92
